Target: UniProt P10980
Sequence (P10980 whole entry): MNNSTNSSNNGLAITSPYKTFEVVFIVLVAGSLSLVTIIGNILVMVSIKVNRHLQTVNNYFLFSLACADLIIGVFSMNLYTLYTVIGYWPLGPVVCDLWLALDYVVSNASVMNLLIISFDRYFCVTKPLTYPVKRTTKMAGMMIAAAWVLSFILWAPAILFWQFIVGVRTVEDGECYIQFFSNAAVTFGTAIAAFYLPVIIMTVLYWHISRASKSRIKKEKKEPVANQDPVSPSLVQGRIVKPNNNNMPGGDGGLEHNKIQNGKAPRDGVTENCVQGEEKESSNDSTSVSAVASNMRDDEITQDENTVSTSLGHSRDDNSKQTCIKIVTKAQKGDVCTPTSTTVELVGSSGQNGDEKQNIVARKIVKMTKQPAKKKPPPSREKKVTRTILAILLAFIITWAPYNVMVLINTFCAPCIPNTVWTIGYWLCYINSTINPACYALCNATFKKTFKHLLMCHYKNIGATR
pKi: −log10 of the molar value.
Across several studies, compounds have been characterized by their pKi on UniProt P10980; a selection follows.
TEST_READOUT: pKi

Look over these answered cases.
1) C[C@@H]1OC2(CCN(C)CC2)CC1=O; 5.60
2) CCC#CCON=C1CCN(C)CC1; 4.80
3) CCN(CC)CCCCC1CCN(CC(=O)N2c3ccccc3NC(=O)c3ccccc32)CC1; 9.50
4) COc1ccc(S(=O)(=O)c2ccc(C3(C4CCN(C5CCN(C(=O)c6ccccc6Br)CC5)CC4)OCCO3)cc2)cc1; 8.74
5) COc1ccc(S(=O)(=O)c2ccc(C3(C4CCN(C5CCN(C(=O)c6cccc(F)c6N)CC5)CC4)OCCO3)cc2)cc1; 9.29
6) CN(CCCCCCCCN(C)C(=O)CCCCCNCC(=O)N1c2ccccc2C(=O)Nc2cccnc21)C(=O)CCCCCN; 7.35
7) CN(CCCCCCCCN(C)CCCCCCN(CC(=O)N1c2ccccc2NC(=O)c2ccccc21)CC(=O)N1c2ccccc2NC(=O)c2ccccc21)CCCCCCNCC(=O)N1c2ccccc2NC(=O)c2ccccc21; 9.36
8) CN(CCCCCCN)CCCCCCCCN(C)CCCCCCN(CC(=O)N1c2ccccc2C(=O)Nc2cccnc21)CC(=O)N1c2ccccc2C(=O)Nc2cccnc21.O=C(O)C(=O)O.O=C(O)C(=O)O.O=C(O)C(=O)O.O=C(O)C(=O)O; 7.89

A: COc1ccc(S(=O)(=O)c2ccc(C3(C4CCN(C5CCN(C(=O)c6ccccc6C)CC5)CC4)O[C@H](C)[C@@H](C)O3)cc2)cc1
B: COc1ccc(S(=O)(=O)c2ccc(C3(C4CCN(C5CCN(C(=O)c6ccccc6C)CC5)CC4)SCCS3)cc2)cc1
Identify the entry with the smaller pKi: A or B . In your reply, give the label of the chosen option.
A

----------
Across several studies, molecules have been characterized by their Ki on Muscarinic acetylcholine receptor M2 (Rattus norvegicus); a selection follows.
Biological target: Muscarinic acetylcholine receptor M2 (Rattus norvegicus)
Sequence (P10980 whole entry): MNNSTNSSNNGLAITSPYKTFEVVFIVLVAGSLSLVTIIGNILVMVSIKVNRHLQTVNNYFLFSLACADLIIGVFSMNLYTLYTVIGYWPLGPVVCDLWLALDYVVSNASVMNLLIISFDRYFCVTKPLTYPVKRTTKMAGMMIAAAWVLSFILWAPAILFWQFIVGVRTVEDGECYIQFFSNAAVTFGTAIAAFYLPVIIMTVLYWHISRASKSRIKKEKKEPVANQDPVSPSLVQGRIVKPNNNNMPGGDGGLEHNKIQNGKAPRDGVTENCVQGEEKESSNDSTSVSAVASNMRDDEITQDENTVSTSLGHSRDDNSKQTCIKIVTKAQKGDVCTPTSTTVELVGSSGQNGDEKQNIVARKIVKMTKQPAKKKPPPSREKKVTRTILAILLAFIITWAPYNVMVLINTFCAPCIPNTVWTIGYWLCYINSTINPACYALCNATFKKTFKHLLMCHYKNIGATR
TEST_READOUT: Ki (nM)

Look over these answered cases.
1) COc1ccc(S(=O)(=O)c2ccc(C3(C4CCN(C5CCN(C(=O)c6ccc(F)cc6N)CC5)CC4)OCCO3)cc2)cc1; 0.44
2) COc1ccc(S(=O)(=O)c2ccc(C3(C4CCN(C5CCN(C(=O)c6ccccc6N)CC5)CC4)OCCO3)cc2)cc1; 1.5

1: CN1CCN(c2cc(-c3ccccc3)cnn2)CC1
2: CN(CCCCCCCCN(C)CCCCCCN(CC(=O)N1c2ccccc2NC(=O)c2cccnc21)CC(=O)N1c2ccccc2NC(=O)c2cccnc21)CCCCCCNCC(=O)N1c2ccccc2NC(=O)c2cccnc21
// which entry has the larger Ki value, 1 or 2 ? In your reply, give the label of the chosen option.
1
(1: 80000 nM, 2: 0.912 nM)

1: Cc1scc2c1N(C(=O)CN1CCN(CCCCCCCCCCN)CC1)c1ccccc1NC2=O
2: CCN1CCN(c2ccc(NC(=O)CCC3CCCC3)cc2Cl)CC1
3: CN1CCC(=NO)CC1
Falling order of Ki, please. In your reply, arrange the labels in the requested order.
3, 2, 1
